# Test system: biotinyl-Phe-oxazolone
# experimental protocol: self-aminoacylation, catalytic enhancement (BFO) (fold over background); higher = more active; k-Seq, kA / k0A0; sequences stand for … in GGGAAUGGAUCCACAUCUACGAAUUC…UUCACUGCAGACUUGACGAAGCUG
Variants at the floor of the assay were thinned out.
Use 10 as the dividing line for self-aminoacylation, with the line itself on the fulfilled side and lower values as not fulfilled.

As a guide, the following entries are already answered.
{"sequence code": "CUAUUUAAAACAAUCGGUCUG [Fam1A.1 aminoacylation ribozyme variant]", "assayed system": "biotinyl-Phe-oxazolone", "group label": "not fulfilled"}
{"sequence code": "AAGUUUGCUACUUGUCGCAAG [Fam3.1 aminoacylation ribozyme variant]", "assayed system": "biotinyl-Phe-oxazolone", "group label": "not fulfilled"}

Exam item: Form field: self-aminoacylation at least 10? Entry: AAGUUUGCUGAUAGUAGCAAG [Fam3.1 aminoacylation ribozyme variant]
Marked response: not fulfilled

Exam item: Form field: self-aminoacylation at least 10? Entry: AUUCACCAAGGUCAUCGGGUG [Fam2.2 aminoacylation ribozyme variant]
Marked response: fulfilled

Exam item: Form field: self-aminoacylation at least 10? Entry: AUAUACCUAGGUCAUCGGGUG [Fam2.2 aminoacylation ribozyme variant]
Marked response: fulfilled

Exam item: Form field: self-aminoacylation at least 10? Entry: CUACUUUUAACAAUCGGUCUG [Fam1A.1 aminoacylation ribozyme variant]
Marked response: not fulfilled

Exam item: Form field: self-aminoacylation at least 10? Entry: AUUACCCUGGUGAUCAAGUGA [Fam2.1 aminoacylation ribozyme variant]
Marked response: not fulfilled

Exam item: Form field: self-aminoacylation at least 10? Entry: AUUACCCUGGUCAUGGAGUGC [Fam2.1 aminoacylation ribozyme variant]
Marked response: not fulfilled

Exam item: Form field: self-aminoacylation at least 10? Entry: AUUACCCGGGUCAUCUAGUGA [Fam2.1 aminoacylation ribozyme variant]
Marked response: fulfilled
